Tested on: HEK-293T
protocol_summary: Incucyte cell viability with HEK293T; further: filed as whole numbers so only -1 and 0 and 1 occur
Type: toxicity, cell-based
applied_conditions: human, 6 h, 10 µM, compound concentration 10 uM, replicate number 2, timepoint 6 hours
readout_type: Growth Rate

Examples with their reported Growth Rate follow.
[ask] Param item = NS(=O)(=O)c1cc(NC(=O)Cc2ccccc2)ccc1Oc1cccc(Cl)c1 ; retrieve measured Growth Rate.
[reply] 1

[ask] GET /values?readout=Growth Rate&item= O=C(O)[C@H]1[C@H](Cn2nnc3ccccc3c2=O)CC[C@@H]1C(=O)c1ccc(OCCC2CCOCC2)cc1
[reply] 1

[ask] # Growth Rate lookup, item C[C@@H](N)Cc1c[nH]cn1.Cl.Cl
[reply] 0

Others:
[ask] Growth Rate lookup needed for CCC(=O)NC1Cc2ccccc2C(c2ccccc2)C1 (stereo not given) , thanks.
[reply] 0

[ask] For COc1ccc(CCc2nc3cc(-c4c(C)noc4C)ccc3n2C[C@H](C)N2CCOCC2)cc1Cl , what is its reported Growth Rate?
[reply] 1

[ask] Can you share its Growth Rate? I mean this compound: CN1CCN(Cc2ccc(-c3cnc4[nH]cc(-c5ccc6[nH]ccc6c5)c4c3)cc2)CC1
[reply] 0

[ask] Dear colleague, I am looking for the recorded Growth Rate of the following compound: CN(c1cc(C(F)(F)F)nc(OCCC(=O)O)n1)c1cccc2c1CCC2
[reply] 0

[ask] Looking for the measured Growth Rate of Cn1cc(Cl)c2c(Oc3c(F)cc(Nc4cc(Cl)nc(N)n4)cc3F)ccnc21 , can you help?
[reply] 0

[ask] Which Growth Rate reading was recorded for the compound CN(CCOc1ccc(CC2SC(=O)NC2=O)cc1)c1ccccn1 (stereo not given) ?
[reply] 0

[ask] Requested read-out: Growth Rate. Entry: C[C@H]1C[C@H]2[C@@H]3CCC4=CC(=O)C=C[C@]4(C)[C@@]3(Cl)[C@@H](O)C[C@]2(C)[C@@]1(O)C(=O)CO
[reply] 0

[ask] Returns the measured Growth Rate for the input compound. Input: CCCCC#Cc1nc(NC)c2ncn([C@@H]3O[C@H](CO)[C@@H](O)[C@H]3O)c2n1
[reply] 1

[ask] Growth Rate lookup needed for CC(C)NCC(O)COc1cccc2ccccc12.Cl (stereo not given) [PROPRANOLOL HYDROCHLORIDE] , thanks.
[reply] 1

[ask] Report Growth Rate for CC(C)c1ccc(CC(=O)N2CCC[C@@H](c3cccc(OC(C)(C)C(=O)O)c3)C2)cc1 please.
[reply] 1

[ask] Please look up its Growth Rate: CCOP(=O)(OCC)C(=Cc1cc(C(C)(C)C)c(O)c(C(C)(C)C)c1)P(=O)(OCC)OCC
[reply] 0

[ask] // query Growth Rate value for entry CCN(CCO)CCCOc1ccc2c(Nc3cc(CC(=O)Nc4cccc(F)c4)[nH]n3)ncnc2c1
[reply] 1

[ask] Please report the recorded Growth Rate for CCOC(=O)c1ncn2c1CN(C)C(=O)c1cc(F)ccc1-2 .
[reply] 0

[ask] State the recorded Growth Rate for this entry: CC(C)(Cc1ccccc1)NCC(O)c1ccc(O)c(NS(C)(=O)=O)c1.Cl (stereo not given) [ZINTEROL HYDROCHLORIDE]
[reply] 0

[ask] What does the record list as Growth Rate for CN1C(=O)[C@@H](NC(=O)c2cc3ccccc3[nH]2)N=C(c2ccccc2)c2ccccc21 [DEVAZEPIDE] ?
[reply] 1

---

Tested on: HEK-293T
protocol_summary: Multiplex assay against HEK293T
Type: toxicity, cell-based
applied_conditions: human, 12 h, 10 µM, compound concentration 10 uM, replicate 1
Grouping by measured Population Pyknosed Nuclei (%) is done with the following cut points: lower bin (below 30%), middle bin (30% to below 60%), upper bin (60% or more)

[ask] For this compound, which bin applies? Cl.NC[C@@H]1O[C@H](C23CC4CC(CC(C4)C2)C3)Cc2c1ccc(O)c2O
[reply] upper bin

[ask] Looking at Cl.Cn1c2c(c3ccc(Cl)c(Cl)c31)C(C#N)C1(CCNCC1)NC2=O (stereo not drawn) , which class would you pick?
[reply] middle bin

[ask] Exam item: assign CC[C@@H]1C(=O)N(C)c2cnc(Nc3ccc(C(=O)NC4CCN(C)CC4)cc3OC)nc2N1C1CCCC1 [BI-2536] to the correct category.
[reply] lower bin

[ask] Bin? CCOC(=O)CCNc1cc(N2CCc3ccccc3CC2)nc(-c2ccccn2)n1
[reply] middle bin

---

Population Hoechst High Intensity Objects (%) values, listed per item
Test system: Fibroblast
protocol_summary: Multiplex assay against human fibroblast
Format: toxicity, cell-based
applied_conditions: 12 h, 10 µM, compound concentration 10 uM, replicate 1
Respond with the bare value in %.

[ask] # lookup: Population Hoechst High Intensity Objects (%) of Oc1cccc(-c2nc(N3CCOCC3)c3oc4ncccc4c3n2)c1
[reply] 23

[ask] Would you kindly share the measured Population Hoechst High Intensity Objects (%) for CC[C@@H]1C(=O)N(C)c2cnc(Nc3ccc(C(=O)NC4CCN(C)CC4)cc3OC)nc2N1C1CCCC1 ?
[reply] 22

[ask] Reported Population Hoechst High Intensity Objects (%), compound CC[C@H](Nc1ncnc2[nH]cnc12)c1nc2cccc(F)c2c(=O)n1-c1ccccc1 : ____
[reply] 10

Next:
[ask] Need Population Hoechst High Intensity Objects (%), item CN(c1cc(C(F)(F)F)nc(OCCC(=O)O)n1)c1cccc2c1CCC2
[reply] 11

[ask] Consider the compound CC(C)[C@H](CO)Nc1nc(Nc2cccc(Cl)c2)c2ncn(C(C)C)c2n1 and give its measured Population Hoechst High Intensity Objects (%).
[reply] 17

[ask] Would you kindly share the measured Population Hoechst High Intensity Objects (%) for CC(Cc1ccc(O)c(O)c1)C(C)Cc1ccc(O)c(O)c1 (stereo not given) [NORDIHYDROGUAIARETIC ACID] ?
[reply] 14

[ask] Fill blank: measured Population Hoechst High Intensity Objects (%) of the compound Cl.NC[C@@H]1O[C@H](C23CC4CC(CC(C4)C2)C3)Cc2c1ccc(O)c2O is ____.
[reply] 15

[ask] So what's the measured Population Hoechst High Intensity Objects (%) for this one? N#Cc1cccc(C(=O)Nc2cc(-c3ccccc3)nn2-c2ccccc2)c1
[reply] 8

---

Test system: Fibroblast
protocol_summary: Multiplex assay against human fibroblast
Assay type: toxicity, cell-based
applied_conditions: 24 h, 10 µM, compound concentration 10 uM, replicate 2
Could you mark each record y if its Population Hoechst High Intensity Objects (%) falls strictly under 20%, and n if it equals or exceeds it?

[ask] is_below(Population Hoechst High Intensity Objects (%), 20%) for Cc1c(Nc2ccc(S(=O)(=O)N3CCN(C)CC3)cc2F)nc2ccc(Nc3cnn(C4CC4)c3)cn2c1=O ?
[reply] n

[ask] Criterion: Population Hoechst High Intensity Objects (%) strictly below 20%. Is it met by NC(=O)c1ccc2nc(-c3ccc(C4(N)CCC4)cc3)c(-c3ccccc3)n2n1 ?
[reply] n

[ask] Is Population Hoechst High Intensity Objects (%) strictly under 20% for the entry CC(Cc1ccc(O)c(O)c1)C(C)Cc1ccc(O)c(O)c1 (stereo not given) [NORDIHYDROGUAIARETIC ACID] ?
[reply] y

[ask] Please state whether Population Hoechst High Intensity Objects (%) is below 20% for CC[C@@H]1C(=O)N(C)c2cnc(Nc3ccc(C(=O)NC4CCN(C)CC4)cc3OC)nc2N1C1CCCC1
[reply] n

Now for a further compound.
[ask] Please indicate whether the reported Population Hoechst High Intensity Objects (%) of Cc1ccc(S(=O)(=O)NC2c3ccccc3Oc3ccccc32)cc1 is strictly below 20%.
[reply] y

---

Tested on: HEK-293T
protocol_summary: Multiplex assay against HEK293T;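 on Population Tubulin-Different-Phenotype (%): share of the cells with healthy nuclei that show this phenotype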
Assay type: toxicity, cell-based
applied_conditions: human, 24 h, 1 µM, compound concentration 1 uM, replicate 1
readout_type: Population Tubulin-Different-Phenotype (%)
Expressed in %, but write only the number.

Field: example entries. Status: answers known.
[ask] What value of measured Population Tubulin-Different-Phenotype (%) is listed for Cl.NC[C@@H]1O[C@H](C23CC4CC(CC(C4)C2)C3)Cc2c1ccc(O)c2O ?
[reply] 43

[ask] Item under review: CCOc1ccn(-c2ccc(F)cc2)c(=O)c1C(=O)Nc1ccc(Oc2ccnc(N)c2Cl)c(F)c1 [BMS-777607] . Reported Population Tubulin-Different-Phenotype (%)?
[reply] 40

[ask] Can you look up the measured Population Tubulin-Different-Phenotype (%) of CCOC(=O)CCNc1cc(N2CCc3ccccc3CC2)nc(-c2ccccn2)n1 for me?
[reply] 7

[ask] // Population Tubulin-Different-Phenotype (%) lookup, key: Cc1ccc(S(=O)(=O)NC2c3ccccc3Oc3ccccc32)cc1
[reply] 41

[ask] For CCCc1cc(C)[nH]c(=O)c1CNC(=O)c1cc(-c2ccc(N3CCN(C(C)C)CC3)nc2)cc2c1cnn2C(C)C , what is its reported Population Tubulin-Different-Phenotype (%)?
[reply] 97

Continuing:
[ask] Which Population Tubulin-Different-Phenotype (%) reading was recorded for the molecule CNC(=O)Nc1ccc2c(c1)CC[C@@]21OC(=O)N(CC(=O)N(Cc2ccc(F)cc2)[C@@H](C)C(F)(F)F)C1=O [A-485] ?
[reply] 74

[ask] I'd like to know its Population Tubulin-Different-Phenotype (%). The molecule in question is CC(Cc1ccc(O)c(O)c1)C(C)Cc1ccc(O)c(O)c1 (stereo not drawn) [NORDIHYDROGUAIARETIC ACID]
[reply] 15

[ask] // query Population Tubulin-Different-Phenotype (%) value for entry C=CC(=O)Nc1cc(-n2c(=O)ccc3cnc4ccc(-c5ccc(NS(C)(=O)=O)cc5)cc4c32)ccc1C
[reply] 57

Recorded values, source ChEMBL document CHEMBL4689842.
